- assayed system: T1, monoclonal antibody 21-4-3
- T1 construct: mouse IgG1 heavy chain, kappa light chain; also called mAb21-4-3; produced by hybridoma ABH0015 (LMBP-9680-CB)
- test: Biacore, captured 21-4-3
readout name: binding vs Reference Sequence (=100%)

binder	measurement units	reported
SEQ ID NO 42 (VHH, Nanobody construct; C-terminal: A) EVQLVESGGGLVQPGGSLRLSCAASGRTFSYNPMGWFRQAPGKGRELVAAISRTGGSTYYPDSVEGRFTISRDNAKRMVYLQMNSLRAEDTAVYYCAAAGVRAEDGRVRTLPSEYTFWGQGTQVTVSSAAAEVQLVESGGGLVQPGGSLRLSCAASGRTFSYNPMGWFRQAPGKGRELVAAISRTGGSTYYPDSVEGRFTISRDNAKRMVYLQMNSLRAEDTAVYYCAAAGVRAEDGRVRTLPSEYTFWGQGTQVTVSSA	%	0
SEQ ID NO 87 (VHH, L11S, S112G, S113G) VHH: EVQLVESGGGSVQPGGSLRLSCAASRSIGRLDRMGWYRHRPGEPRELVATITGGSSINYGDSVKGRFTISIDNSKNTVYLQMNSLRPEDTAVYYCNFNKYVTSRDTWGQGTLVTVGG	%	41
SEQ ID NO 85 (VHH, L11S, T110Q, S112G, S113G) VHH: EVQLVESGGGSVQPGGSLRLSCAASRSIGRLDRMGWYRHRPGEPRELVATITGGSSINYGDSVKGRFTISIDNSKNTVYLQMNSLRPEDTAVYYCNFNKYVTSRDTWGQGTLVQVGG	%	32
SEQ ID NO 68 (VHH, P14A, L108Q) VHH: EVQLVESGGGLVQAGGSLRLSCAASRSIGRLDRMGWYRHRPGEPRELVATITGGSSINYGDSVKGRFTISIDNSKNTVYLQMNSLRPEDTAVYYCNFNKYVTSRDTWGQGTQVTVSS	%	26
SEQ ID NO 71 (VHH, S113G) VHH: EVQLVESGGGLVQPGGSLRLSCAASRSIGRLDRMGWYRHRPGEPRELVATITGGSSINYGDSVKGRFTISIDNSKNTVYLQMNSLRPEDTAVYYCNFNKYVTSRDTWGQGTLVTVSG	%	44
SEQ ID NO 38 (bispecific antibody, Nanobody construct; C-terminal: A) EVQLVESGGGLVQPGGSLRLSCAASGFTFSSYAMSWVRQAPGKGLEWVSGIKSSGDSTRYAGSVKGRFTISRDNAKNTLYLQMNSLRPEDTAVYYCAKSRVSRTGLYTYDNRGQGTLVTVSSGGGGSGGGGSGGGGSGGGGSEVQLVESGGGLVQPGGSLRLSCAASGRTFNNYAMGWFRQAPGKEREFVAAITRSGVRSGVSAIYGDSVKDRFTISRDNAKNTLYLQMNSLRPEDTAVYYCAASAIGSGALRRFEYDYSGQGTLVTVSSA	%	0
